electrical conductivity reference
Assay: xn = mol fraction of the nth substance listed
Settings: 303.15 K; 101 kPa; x1 = 1.08e-06; x2 = 0

Consider the following illustrative entries.
INSERT INTO assay_data (compound, quantity, experimental_result) VALUES
  ('CCCCCCCCCCCCCCCC[n+]1ccccc1.O=C([O-])C(O)c1ccccc1 + NCC(=O)O + O', 'electrical conductivity', '0.00076 S/m'),
  ('CCCCCCCCCCCCCCCC[n+]1ccccc1.O=C([O-])C(O)c1ccccc1 + CC(C)[C@H](N)C(=O)O + O', 'electrical conductivity', '0.00076 S/m'),
  ('CCCCCCCCCCCCCCCC[n+]1ccccc1.O=C([O-])C(O)c1ccccc1 + C[C@H](N)C(=O)O + O', 'electrical conductivity', '0.00076 S/m'),
  ('CCCCCCCCCCCCCCCC[n+]1ccccc1.O=C([O-])C(O)c1ccccc1 + NCC(=O)NCC(=O)O + O', 'electrical conductivity', '0.00076 S/m');

In: Entry CCCCCCCCCCCCCCCC[n+]1ccccc1.O=C([O-])C(O)c1ccccc1 + CC(C)C[C@H](N)C(=O)O + O has what electrical conductivity?
Out: 0.00076 S/m

====

electrical conductivity reference
Experiment: xn = mol fraction of the nth substance listed
Settings: 293.15 K; 101 kPa; x1 = 3.96e-06; x2 = 0
Express it in S/m; write the number only.

Consider the following illustrative entries.
INSERT INTO measurements (molecule, experimental_result) VALUES
  ('CCCCCCCCCCCCCCCC[n+]1ccccc1.O=C([O-])C(O)c1ccccc1 + NCC(=O)NCC(=O)O + O', 0.0019),
  ('CCCCCCCCCCCCCCCC[n+]1ccccc1.O=C([O-])C(O)c1ccccc1 + CC(C)[C@H](N)C(=O)O + O', 0.0019),
  ('CCCCCCCCCCCCCCCC[n+]1ccccc1.O=C([O-])C(O)c1ccccc1 + NCC(=O)O + O', 0.0019),
  ('CCCCCCCCCCCCCCCC[n+]1ccccc1.O=C([O-])C(O)c1ccccc1 + CC(C)C[C@H](N)C(=O)O + O', 0.0019);

In: Entry CCCCCCCCCCCCCCCC[n+]1ccccc1.O=C([O-])C(O)c1ccccc1 + C[C@H](N)C(=O)O + O has what electrical conductivity?
Out: 0.0019

====

electrical conductivity reference
Assay: xn = mol fraction of the nth substance listed
Conditions: 298.15 K; 101 kPa; x1 = 5.95e-06; x2 = 0
Express it in S/m; write the number only.

In: Entry CCCCCCCCCCCCCCCC[n+]1ccccc1.O=C([O-])C(O)c1ccccc1 + C[C@H](N)C(=O)O + O has what electrical conductivity?
Out: 0.0032

In: Entry CCCCCCCCCCCCCCCC[n+]1ccccc1.O=C([O-])C(O)c1ccccc1 + NCC(=O)NCC(=O)O + O has what electrical conductivity?
Out: 0.0032

In: Entry CCCCCCCCCCCCCCCC[n+]1ccccc1.O=C([O-])C(O)c1ccccc1 + NCC(=O)O + O has what electrical conductivity?
Out: 0.0032

In: Entry CCCCCCCCCCCCCCCC[n+]1ccccc1.O=C([O-])C(O)c1ccccc1 + CC(C)C[C@H](N)C(=O)O + O has what electrical conductivity?
Out: 0.0032

In: Entry CCCCCCCCCCCCCCCC[n+]1ccccc1.O=C([O-])C(O)c1ccccc1 + CC(C)[C@H](N)C(=O)O + O has what electrical conductivity?
Out: 0.0032
